Measured values drawn from patent US8461328B2 for this set.

Documented Ki across a set of molecules
- SUBJECT OF TEST: JAK1 (Homo sapiens)
- Construct: made in house; host or cells: SF9 insect cells (baculovirus)
- PROCEDURE SUMMARY: JAK1 inhibition (Table 4)
- Type: biochemical
- PARTICULARS: read-out: JAK1 Ki
The reply should read as a number followed by its unit.

The cases that follow already have their Ki on record.
CC(=O)NCc1nc2cnc3[nH]ccc3c2n1C1CCN(CC(F)(F)F)CC1
13 nM
OCCOc1nc2cnc3[nH]ccc3c2n1C1CCCOC1 (racemic)
15.8 nM
N#CCCN1CCC[C@@H](n2cnc3cnc4[nH]ccc4c32)C1
12.8 nM

Field: next molecule
Value wanted: Ki (JAK1 (Homo sapiens)) of entry N#C[C@@H]1C[C@@H]1C(=O)N1CCC[C@@H](n2cnc3cnc4[nH]ccc4c32)C1 17.2 nM

====

- SUBJECT OF TEST: JAK3 (Homo sapiens, UniProt P52333)
- Construct: made in house; host or cells: SF9 insect cells (baculovirus)
- Sequence (P52333 783-1124): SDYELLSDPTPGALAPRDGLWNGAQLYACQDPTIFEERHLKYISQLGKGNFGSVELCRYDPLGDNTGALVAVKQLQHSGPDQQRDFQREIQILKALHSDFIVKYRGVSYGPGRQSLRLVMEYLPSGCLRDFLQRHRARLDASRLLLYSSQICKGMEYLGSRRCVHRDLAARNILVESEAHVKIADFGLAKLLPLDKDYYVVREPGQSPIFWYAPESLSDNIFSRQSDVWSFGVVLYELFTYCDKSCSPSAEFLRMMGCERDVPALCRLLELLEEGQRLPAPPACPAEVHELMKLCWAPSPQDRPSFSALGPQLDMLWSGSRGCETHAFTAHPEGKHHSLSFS
- PROCEDURE SUMMARY: JAK3 inhibition (Table 4)
- Format: biochemical
- PARTICULARS: read-out: JAK3 Ki
Reported values of pKi for individual entries
# pKi is unitless: minus log10 of the molar concentration; print number only

Example results:
N#CCCN1CCC(n2c(CNC(=O)c3ccccn3)nc3cnc4[nH]ccc4c32)CC1
7.88
Cc1nc2cnc3[nH]ccc3c2n1[C@@H]1C[C@H]2CC[C@@H](C1)N2Cc1ccccc1
7.22
CC(=O)N1CCC(c2nc3cnc4[nH]ccc4c3n2C2CCN(CCC#N)CC2)C1 (racemic)
7.32
Cc1nc2cnc3[nH]ccc3c2n1C1CC2CCC1O2 (stereo not drawn)
7.28
C[C@@H](O)c1nc2cnc3[nH]ccc3c2n1[C@H]1CC[C@H](S(C)(=O)=O)CC1
6.12
CS(=O)(=O)NCc1nc2cnc3[nH]ccc3c2n1C1CC2CCC1C2 (stereo not drawn)
7.43
CS(=O)(=O)NCCc1nc2cnc3[nH]ccc3c2n1[C@@H]1CCCOC1
6.35
COC(=O)N1CCC(n2c([C@@H](C)O)nc3cnc4[nH]ccc4c32)CC1
6.73
O=C(NCCc1nc2cnc3[nH]ccc3c2n1[C@H]1CCCOC1)C1CC1
6.28
C[C@H](O)c1nc2cnc3[nH]ccc3c2n1[C@@H]1CCCN(C(=O)CC(F)(F)F)C1
5.53

Given the compound COC[C@H](C)n1c(C)nc2cnc3[nH]ccc3c21 , what is its reported pKi? 7.48

What does the data say about its pKi? Entry: c1cncc(CN2CCC(n3nnc4cnc5[nH]ccc5c43)CC2)c1 7.32

====

- SUBJECT OF TEST: JAK1 (Homo sapiens, UniProt P23458)
- Construct: made in house; host or cells: SF9 insect cells (baculovirus)
- Sequence (P23458 852-1154): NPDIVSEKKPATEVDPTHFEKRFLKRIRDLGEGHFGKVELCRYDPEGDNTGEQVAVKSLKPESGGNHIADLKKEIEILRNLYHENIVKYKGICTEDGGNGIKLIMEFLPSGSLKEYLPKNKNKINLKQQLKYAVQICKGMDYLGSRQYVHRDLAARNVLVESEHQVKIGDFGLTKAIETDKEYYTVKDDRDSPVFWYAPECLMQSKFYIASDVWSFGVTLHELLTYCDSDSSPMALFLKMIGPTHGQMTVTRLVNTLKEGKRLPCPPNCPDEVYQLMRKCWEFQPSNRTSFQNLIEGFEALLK
- PROCEDURE SUMMARY: JAK1 inhibition (Table 4)
- Assay type: biochemical
- PARTICULARS: read-out: JAK1 Ki
Reported Ki values are given for each entry in this list.
Supply the numeric figure in nM, leaving out any unit text.

CNC(=O)Cc1nc2cnc3[nH]ccc3c2n1C1CCN(Cc2ccccc2)CC1
9.93
O=C(CC(F)(F)F)N1CCC[C@@H](n2cnc3cnc4[nH]ccc4c32)C1
3.3
N#CCC1(N2CCC(n3cnc4cnc5[nH]ccc5c43)CC2)COC1
0.66
CC1CNCCC1n1cnc2cnc3[nH]ccc3c21 (racemic) [Example 306]
34.9
CNC(=O)OC1CCC(n2c(C)nc3cnc4[nH]ccc4c32)CC1 (stereo not drawn)
7.83

Which Ki is reported with JAK1 (Homo sapiens, UniProt P23458) for this entry: O=C(Cc1nc2cnc3[nH]ccc3c2n1C1CCCOC1)N1CCCC(O)C1 (racemic) ? 34.3

Lab request: please report Ki under test system JAK1 (Homo sapiens, UniProt P23458) for CS(=O)(=O)NCc1nc2cnc3[nH]ccc3c2n1C1CC2CCC1O2 (stereo not drawn) [Example 925] 30

Fill in the recorded Ki for this compound, with JAK1 (Homo sapiens, UniProt P23458) as test system: c1cc2c(ncc3nc(C4CCCN4)n(C4CCCOC4)c32)[nH]1 (single isomer, unassigned) [Example 666] 1690

Form field - read-out: Ki; system: JAK1 (Homo sapiens, UniProt P23458); submitted item: C[C@@H](O)c1nc2cnc3[nH]ccc3c2n1N1CCOCC1 65

// lookup Ki | system=JAK1 (Homo sapiens, UniProt P23458) | key= CC(C)NC(=O)Cc1nc2cnc3[nH]ccc3c2n1C1CCN(Cc2ccccc2)CC1 5.09

Record lookup: for JAK1 (Homo sapiens, UniProt P23458), what Ki belongs to CC(O)c1nc2cnc3[nH]ccc3c2n1C1CCN(CC(=O)N2CCCCC2)CC1 (racemic) ? 19.6

Identify the measured Ki of OCCc1nc2cnc3[nH]ccc3c2n1[C@@H]1CCCNC1 for JAK1 (Homo sapiens, UniProt P23458). 219

====

- SUBJECT OF TEST: JAK1 (Homo sapiens)
- Construct: made in house; host or cells: SF9 insect cells (baculovirus)
- PROCEDURE SUMMARY: JAK1 inhibition (Table 4)
- Format: biochemical
- PARTICULARS: read-out: JAK1 Ki
Measured log10 Ki by item
Scale: log10; quantity: Ki; unit before log: nM

Consider the reported log10 Ki for these compounds:
CC(CC#N)N1CCC(n2c(C3CCOCC3)nc3cnc4[nH]ccc4c32)CC1 (racemic)
1.66
CN(C)C(=O)CNC(=O)Cc1nc2cnc3[nH]ccc3c2n1C1CCCOC1 (racemic)
1.54
O=C(CN1CCCCC1=O)N1CCC(n2cnc3cnc4[nH]ccc4c32)CC1
1.75
O=C(NCCc1nc2cnc3[nH]ccc3c2n1[C@H]1CCCOC1)C1CC1
0.79

// query log10 Ki value for entry C[C@@H](O)c1nc2cnc3[nH]ccc3c2n1[C@H]1CC[C@H](OC(=O)N(C)C)CC1 1.99

Recorded log10 Ki for O=C(Cc1nc2cnc3[nH]ccc3c2n1C1CCN(Cc2ccccc2)CC1)N1CCCC1 , please? 1.34

Look up log10 Ki: O=C(Cc1ccccc1)N1CC[C@@H](n2cnc3cnc4[nH]ccc4c32)C1 1.77

What value of measured log10 Ki is listed for CC(C)N1CCC(n2cnc3cnc4[nH]ccc4c32)CC1 ? 1.97

Item O=C(Cc1nc2cnc3[nH]ccc3c2n1C1CCCOC1)NCC(F)F (racemic) has what recorded log10 Ki? 1.36

Could you tell me which log10 Ki is on file for O=C([C@H]1CC[C@H](n2nnc3cnc4[nH]ccc4c32)CC1)N1CCOCC1 ? 2.21

Please report the recorded log10 Ki for O=C(Cc1nc2cnc3[nH]ccc3c2n1C1CCNCC1)N1CC(F)(F)C1 . 1.93

====

Here's what we have: pKi numbers for TYK2 (Homo sapiens).
Schema: pKi number; meaning minus log10 of the concentration expressed in molar units.

The following compounds have reported results that may help.
O=S(=O)(C1CC1)N1CCC[C@@H](n2cnc3cnc4[nH]ccc4c32)C1
7.16
O=C(Cc1nc2cnc3[nH]ccc3c2n1C1CCCOC1)N1CC(F)(F)C1 (racemic)
6.10
N#CCCn1cc2c(n1)CCC(n1cnc3cnc4[nH]ccc4c31)C2 (racemic)
7.23
N#CCCN1CCC(n2c(C(F)F)nc3cnc4[nH]ccc4c32)CC1
7.91
OCc1nc2cnc3[nH]ccc3c2n1C1CC2CCC1O2 (single isomer, unassigned) [Example 851]
7.30

With those in mind, consider the next compound.
Query pKi on TYK2 (Homo sapiens) for N#CCCN[C@H]1CC[C@H](n2cnc3cnc4[nH]ccc4c32)CC1 7.44

====

- SUBJECT OF TEST: JAK2 (Homo sapiens, UniProt O60674)
- Construct: made in house; host or cells: SF9 insect cells (baculovirus)
- Sequence (O60674 812-1132): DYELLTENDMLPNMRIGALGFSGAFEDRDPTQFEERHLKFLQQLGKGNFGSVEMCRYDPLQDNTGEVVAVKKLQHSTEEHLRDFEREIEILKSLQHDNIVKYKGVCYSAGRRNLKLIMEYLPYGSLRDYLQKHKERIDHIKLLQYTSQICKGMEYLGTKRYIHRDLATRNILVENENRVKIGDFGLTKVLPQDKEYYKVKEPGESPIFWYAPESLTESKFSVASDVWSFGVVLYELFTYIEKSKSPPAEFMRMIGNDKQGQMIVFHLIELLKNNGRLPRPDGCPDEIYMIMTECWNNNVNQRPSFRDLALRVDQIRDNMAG
- PROCEDURE SUMMARY: JAK2 inhibition (Table 4)
- Type: biochemical
- PARTICULARS: read-out: JAK2 Ki
Reported pKi values are given for each entry in this list.
Bear in mind: pKi is minus log10 of a mol/L concentration; give just that figure.

Some entries whose results are on file:
Cc1nc2cnc3[nH]ccc3c2n1[C@@H]1C[C@@H]2CC[C@H]1O2 (relative stereo)
7.67
C[C@@H](O)c1nc2cnc3[nH]ccc3c2n1[C@H]1CCNC1
5.61
OCCN1CC[C@@H](n2cnc3cnc4[nH]ccc4c32)C1
6.60
CC(C)(C)OC(=O)NC1CCC(n2cnc3cnc4[nH]ccc4c32)C1 (racemic) [Example 137]
8.02
O=C(O)[C@H]1C[C@@H](n2cnc3cnc4[nH]ccc4c32)C1
6.74

Reported pKi for C[C@H](O)c1nc2cnc3[nH]ccc3c2n1[C@@H]1CCCN(C(=O)Cn2ccnc2)C1 : what is it? 5.83

# get_value(readout='pKi', item= COC1CNCCC1n1c(C)nc2cnc3[nH]ccc3c21 (racemic) ) 7.35

If you can, please state the reported pKi value of OCCc1nc2cnc3[nH]ccc3c2n1[C@H]1CCCOC1 . 7.28

What does the record list as pKi for O=C(Cc1nc2cnc3[nH]ccc3c2n1C1CC2CCC1C2)N1CCC(O)CC1 (racemic) ? 7.75

Please report the recorded pKi for Cc1nc2cnc3[nH]ccc3c2n1C1CCN(Cc2cccnc2)CC1 . 8.71

I'd like to know its pKi. The compound in question is OCc1nc2cnc3[nH]ccc3c2n1C1CCN(CCF)CC1 7.99

Endpoint output: pKi of N#CCCN1CCC(n2c(CC(=O)N3CCCC3)nc3cnc4[nH]ccc4c32)CC1 . Value? 6.92

Report pKi for CS(=O)(=O)NCc1nc2cnc3[nH]ccc3c2n1C1CCN(CCC#N)CC1 please. 7.37

So what's the measured pKi for this one? CNC(=O)OC1CCC(n2c(C)nc3cnc4[nH]ccc4c32)CC1 (stereo not shown) 7.55

# lookup: pKi of c1cc2c(ncc3ncn(C4CCCCNC4)c32)[nH]1 (single isomer, unassigned) [Example 110a] 7.09

Value lookup for pKi; key = CC(C)(O)CN1CC[C@@H](n2cnc3cnc4[nH]ccc4c32)C1 6.79

Any idea what pKi was measured for N#CCCN1CCC(n2c(C3CCC3)nc3cnc4[nH]ccc4c32)CC1 ? 7.77

Which pKi reading was recorded for the compound O=C(Cc1ccccc1)N1CCC(n2cnc3cnc4[nH]ccc4c32)CC1 ? 7.88

What value of measured pKi is listed for O[C@@H]1CC[C@H](n2cnc3cnc4[nH]ccc4c32)C1 ? 7.46
